From: PubChem BioAssay AID651558

- ASSAY_NOTES: qHTS Assay to Find Inhibitors of Chronic Active B-Cell Receptor Signaling: Hit Validation in Primary Screen; further: nearly all actives have a fitted effect of over 75% in size
- TEST_SETTINGS: ABC-DLBCL IkB-luc/CBR ratio luminescence, 4 h; series mostly up to 46.1 µM
Among all 1,200 compounds or so, about 480 (40%) were called active. About 29% were inconclusive and are not listed. The call rests on the fitted dose curve; in most records, active means well fitted inhibition curve with a large enough effect; inconclusive means small, poorly fitted or top-dose-only effect; inactive means no such curve, though single readings can be large or run the other way. Some of the results follow.
Response enum: yes (active), no (inactive)

query: For this compound, state the assay outcome: "Fc1cccc2sc(Nc3nnc(-c4ccccc4)o3)nc12"
result: yes

query: For this compound, state the assay outcome: CCOC(=O)C(C)Oc1cccc2c(=O)n(CC(=O)NCc3ccco3)ccc12 (stereo unspecified)
result: yes

query: For this compound, state the assay outcome: CCOC(=O)C(C)Oc1cccc2c(=O)n(CC(=O)NCc3ccccc3)ccc12 (stereo unspecified)
result: yes

query: For this compound, state the assay outcome: "O=C(N/N=C/c1ccc(Cl)cc1)c1sccc1OCc1ccc(F)cc1"
result: yes

query: For this compound, state the assay outcome: COc1cc2c(cc1C1NC(=S)NC(C)=C1C(N)=O)CCCC2 (stereo unspecified)
result: no

query: For this compound, state the assay outcome: "CCOC(=O)COc1cccc2c(=O)n(CC(=O)NCc3ccc(F)cc3)ccc12"
result: yes

query: For this compound, state the assay outcome: COc1cccc(C2NC(=S)NC(C)=C2C(=O)c2ccccc2)c1OC (stereo unspecified)
result: yes

query: For this compound, state the assay outcome: "COc1cccc(-c2nnc(Nc3nc4c(F)cccc4s3)o2)c1"
result: yes

query: For this compound, state the assay outcome: "CCn1c(SCC(=O)c2ccc(Cl)cc2)nnc1C(C)C"
result: no

query: For this compound, state the assay outcome: "CCOC(=O)COc1cccc2c(=O)n(CC(=O)NCc3ccccc3)ccc12"
result: no

query: For this compound, state the assay outcome: COc1cc(C(=O)NNC(=O)C2CC=CCC2C(=O)O)cc(OC)c1OC (stereo unspecified)
result: no

====

- ASSAY_NOTES: qHTS Assay to Find Inhibitors of Chronic Active B-Cell Receptor Signaling: Hit Validation in Primary Screen; further: nearly all actives have a fitted effect of over 75% in size; further: potency means the concentration at half of the fitted maximal effect
- TEST_SETTINGS: ABC-DLBCL IkB-luc/CBR ratio luminescence, 4 h; series mostly up to 46.1 µM
- From the text: Diffuse large B-cell lymphoma (DLBCL) is the most common category of non-Hodgkin lymphoma, with ~20,000 new cases per year in the United States. DLBCL should be regarded as a collection of different neoplasms. […] Following the addition of doxycycline to induce expression of the luciferases, the green luminescence in control cultures rises only slowly because the CBG fusion partner IkappaBalpha is targeted by IKK activity for rapid degradation. […]
Screen size: about 1,200 compounds; about 480 (40%) were called active. Roughly 29% stayed inconclusive and do not appear here. The list shows a part of the results.
QUANTITY_NAME: Potency

Examples with their reported Potency follow.
MOLECULE: Cc1ccsc1/C=C/C1=NCCCN1C
Potency: inactive
--
MOLECULE: CCOC(=O)Nc1ccc2nc(N3CCCCCC3)sc2c1
Potency: 20.6 µM (active)
--
MOLECULE: CCOc1ncccc1C(=O)N1CCN(c2cc(Cl)ccc2C)CC1
Potency: 8.2 µM (active)
--
MOLECULE: CCOc1ccccc1C(=O)N1CCN(c2cccc(Cl)c2)CC1
Potency: 0.517 µM (active)
--
MOLECULE: Cc1ccccc1C(=O)N1CCC(C(=O)N2CCN(Cc3ccc4c(c3)OCO4)CC2)CC1
Potency: inactive

query: Consider the molecule "Cc1[nH][nH]c(=O)c1C(c1c(C)[nH][nH]c1=O)c1cn(Cc2ccc(F)cc2)c2ccccc12" and give its measured Potency.
result: 14.6 µM (active)

query: Consider the molecule N#CC1=C(N)OC2=C(CCc3ccccc32)C1c1ccccc1 (stereo unspecified) and give its measured Potency.
result: 2.59 µM (active)

====

- ASSAY_NOTES: qHTS Assay to Find Inhibitors of Chronic Active B-Cell Receptor Signaling: Hit Validation in Primary Screen; further: nearly all actives have a fitted effect of over 75% in size
- TEST_SETTINGS: ABC-DLBCL IkB-luc/CBR ratio luminescence, 4 h; series mostly up to 46.1 µM
- Description: Diffuse large B-cell lymphoma (DLBCL) is the most common category of non-Hodgkin lymphoma, with ~20,000 new cases per year in the United States. DLBCL should be regarded as a collection of different neoplasms. […] Following the addition of doxycycline to induce expression of the luciferases, the green luminescence in control cultures rises only slowly because the CBG fusion partner IkappaBalpha is targeted by IKK activity for rapid degradation. […]
In all, about 1,200 compounds went through this assay and about 480 (40%) were called active. About 29% were inconclusive and are not listed. The call rests on the fitted dose curve; in most records, active means well fitted inhibition curve with a large enough effect; inconclusive means small, poorly fitted or top-dose-only effect; inactive means no such curve, though single readings can be large or run the other way. This is one part of the list.
Response enum: T for active, F for inactive

query: For this molecule, state the assay outcome: "Cc1cc2c(cc(C(=O)OCC(=O)NCc3cccs3)n2C(C)C)o1"
result: T

query: For this molecule, state the assay outcome: "Nc1ncnc2c1ncn2[C@@H]1O[C@H](CNCc2cccc(C#Cc3ccccc3)c2)[C@@H](O)[C@H]1O"
result: F

query: For this molecule, state the assay outcome: "CCn1c(=O)c([N+](=O)[O-])c(Cl)c2ccccc21"
result: T

query: For this molecule, state the assay outcome: "C[C@H](Cc1ccccc1)Nc1ncnc2c1ncn2[C@@H]1O[C@H](CO)[C@@H](O)[C@H]1O"
result: T

query: For this molecule, state the assay outcome: "COc1cc(-c2c(-c3cc(OC)c(OC)c(OC)c3)noc2C)ccc1F"
result: T

query: For this molecule, state the assay outcome: "COc1ccc(-c2cc(C(=O)NN)[nH]n2)cc1OC"
result: F

query: For this molecule, state the assay outcome: "CC1=C/C(=N\NC(=S)NCc2ccccc2)CC1"
result: F

query: For this molecule, state the assay outcome: CCOC(=O)C(NC(=O)N(C)C)(Nc1sc(C)c(CC)c1C#N)C(F)(F)F (stereo unspecified)
result: F

query: For this molecule, state the assay outcome: "CCN(CC(=O)Nc1ccccc1SC)Cc1nc2ccccc2c(=O)[nH]1"
result: F

query: For this molecule, state the assay outcome: "CCOc1cc(NC(=O)CCl)c(OCC)cc1NC(=O)CCl"
result: T

query: For this molecule, state the assay outcome: "COc1cc(OC)cc(-c2cc3cc4c(cc3cn2)OCO4)c1"
result: T

query: For this molecule, state the assay outcome: "C=CCNC(=S)N/N=C/c1ccc(C(C)(C)C)cc1"
result: F

query: For this molecule, state the assay outcome: "Cc1cn(-c2cccnc2)c(C)c1CNC[C@H]1O[C@@H](n2cnc3c(N)ncnc32)[C@H](O)[C@@H]1O"
result: F

query: For this molecule, state the assay outcome: COC1=CC(=O)CC(C)C12Oc1c(Cl)c(OC)cc(OC)c1C2=O (stereo unspecified)
result: F

query: For this molecule, state the assay outcome: "NC(=S)N/N=C/c1ncc(C(F)(F)F)cc1Cl"
result: F

query: For this molecule, state the assay outcome: "Fc1ccc(NC(=S)N/N=C/c2ccc(F)c(F)c2)cc1"
result: F

query: For this molecule, state the assay outcome: "Cc1onc(-c2ccccc2)c1-c1nc2cc(Cl)ccc2c(=O)o1"
result: T

query: For this molecule, state the assay outcome: COc1cc2c(cc1OC)C(C)N(C(=O)c1cc(C)on1)CC2 (stereo unspecified)
result: T

query: For this molecule, state the assay outcome: "Cc1ccc(C(=O)Nc2nc(C)c(C(=O)Nc3ccc4c(c3)CCC4)s2)cc1"
result: T

query: For this molecule, state the assay outcome: "CCc1ccccc1NC(=S)N=Nc1c(O)n(C)c2ccc(S(=O)(=O)N3CCOCC3)cc12"
result: F

query: For this molecule, state the assay outcome: "CCCCC(=O)O[C@]1(C(=O)CO)CC[C@H]2[C@@H]3CCC4=CC(=O)CC[C@]4(C)[C@H]3[C@@H](O)C[C@@]21C"
result: F

====

- ASSAY_NOTES: qHTS Assay to Find Inhibitors of Chronic Active B-Cell Receptor Signaling: Hit Validation in Primary Screen; further: nearly all actives have a fitted effect of over 75% in size
- TEST_SETTINGS: ABC-DLBCL IkB-luc/CBR ratio luminescence, 4 h; series mostly up to 46.1 µM
The campaign covered roughly 1,200 compounds. About 480 (40%) were called active. Inconclusive results (about 29%) are left out. The call rests on the fitted dose curve; in most records, active means well fitted inhibition curve with a large enough effect; inconclusive means small, poorly fitted or top-dose-only effect; inactive means no such curve, though single readings can be large or run the other way. The list shows a part of the results.
Response enum: active, inactive

query: For this molecule, state the assay outcome: "C=CCn1c(O)c(N=NC(=S)Nc2ccccc2C)c2cc(S(=O)(=O)N3CCOCC3)ccc21"
result: inactive

query: For this molecule, state the assay outcome: "CCOC(=O)c1cnc(Nc2nc3ccccc3o2)nc1CSC(=S)N(CC)CC"
result: inactive

query: For this molecule, state the assay outcome: "Cc1cc(Cl)n2c(nc3ccccc32)c1C#N"
result: active

query: For this molecule, state the assay outcome: "O=C(Nc1ncc(Cc2ccc(SC(F)F)cc2)s1)c1ccccc1"
result: active

query: For this molecule, state the assay outcome: "Cc1ccc(Sc2c(CO)c(-c3ccccc3)nn2C)cc1"
result: active

query: For this molecule, state the assay outcome: "O=C(Nc1ncc(Cc2ccc(SC(F)F)cc2)s1)c1ccc(OC(F)F)cc1"
result: active

query: For this molecule, state the assay outcome: "CSc1nc(SCC(=O)NCc2ccco2)c2c3c(sc2n1)COC(C)(C)C3"
result: active

query: For this molecule, state the assay outcome: "C(=N\Nc1nc2ccccc2[nH]1)/C1CCCCC1"
result: inactive

query: For this molecule, state the assay outcome: "O=C1N[C@H]2CC=C[C@H]2Nc2ccccc21"
result: inactive

query: For this molecule, state the assay outcome: "C[C@]12CCC(=O)C=C1CC[C@@H]1[C@@H]2[C@@H](O)C[C@@]2(C)[C@H]1CC[C@]2(O)C(=O)CO"
result: inactive

query: For this molecule, state the assay outcome: "Cc1ccc(N=Nc2c(C)[nH]n(C(N)=S)c2=O)cc1"
result: inactive
